Just for reference, ChEMBL document CHEMBL5042473 is where these values come from.

# TEST DESCRIPTION: Ratio of drug concentration in RjOrl:Swiss (CD-1) mouse brain to plasma at 10mg/kg, iv administered measured after 2 hrs by LC-MS/MS analysis
# Type: ADME, organism-based
# PROTOCOL CONDITIONS: brain and plasma, read-out: BPR
MEASUREMENT LABEL: Kp at 2 h

• O=C(N[C@@H](Cc1ccccc1)C(=O)O)c1ccc2c(c1)C(=O)c1ccc(Nc3ccc(F)cc3F)cc1CC2 = 0.31
• N[C@@H](CCCCNC(=O)c1ccc2c(c1)C(=O)c1ccc(Nc3ccc(F)cc3F)cc1CC2)C(=O)O = 0.01
• O=C(NCCNCCO)c1ccc2c(c1)C(=O)c1ccc(Nc3ccc(F)cc3F)cc1CC2 = 0.17
• O=C(O)CCNC(=O)c1ccc2c(c1)C(=O)c1ccc(Nc3ccc(F)cc3F)cc1CC2 = 1.25

* * *

# MEASURED TARGET: CYP2C19 (Homo sapiens, UniProt P33261)
# Sequence (P33261 whole entry): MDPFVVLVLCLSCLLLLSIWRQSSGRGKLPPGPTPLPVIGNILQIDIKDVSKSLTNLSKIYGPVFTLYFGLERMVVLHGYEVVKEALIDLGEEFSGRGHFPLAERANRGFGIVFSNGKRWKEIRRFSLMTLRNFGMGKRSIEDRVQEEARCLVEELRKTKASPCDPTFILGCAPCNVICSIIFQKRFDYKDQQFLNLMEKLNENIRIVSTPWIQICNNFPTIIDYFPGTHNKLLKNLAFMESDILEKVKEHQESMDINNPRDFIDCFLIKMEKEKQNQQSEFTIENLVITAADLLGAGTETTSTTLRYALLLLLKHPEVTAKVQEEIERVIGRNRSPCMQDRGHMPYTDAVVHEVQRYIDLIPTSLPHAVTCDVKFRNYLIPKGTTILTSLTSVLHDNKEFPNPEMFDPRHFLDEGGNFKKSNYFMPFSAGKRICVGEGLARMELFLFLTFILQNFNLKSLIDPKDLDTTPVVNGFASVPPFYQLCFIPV
# TEST DESCRIPTION: Inhibition of human recombinant CYP2C19 at 10 uM relative to control
# Format: ADME
MEASUREMENT LABEL: inhibition at 10 µM

• COC(=O)CCNC(=O)c1ccc2c(c1)C(=O)c1ccc(Nc3ccc(F)cc3F)cc1CC2 = 100%
• Nc1ccccc1Nc1ccc2c(c1)CCc1ccc(C(=O)NCCC(=O)O)cc1C2=O = 21.8%
• O=C(NCCN1CC2(COC2)C1)c1ccc2c(c1)C(=O)c1ccc(Nc3ccc(F)cc3F)cc1CC2 = 93.6%
• O=C(O)CCNC(=O)c1ccc2c(c1)C(=O)c1ccc(Nc3ccc(F)cc3F)cc1CC2 = 100%
• COC(=O)CCCNC(=O)c1ccc2c(c1)C(=O)c1ccc(Nc3ccc(F)cc3F)cc1CC2 = 60.4%
• O=C(O)CCCNC(=O)c1ccc2c(c1)C(=O)c1ccc(Nc3ccc(F)cc3F)cc1CC2 = 63.2%

* * *

# MEASURED TARGET: Mitogen-activated protein kinase 14 (Homo sapiens, UniProt Q16539)
# Sequence (Q16539 whole entry): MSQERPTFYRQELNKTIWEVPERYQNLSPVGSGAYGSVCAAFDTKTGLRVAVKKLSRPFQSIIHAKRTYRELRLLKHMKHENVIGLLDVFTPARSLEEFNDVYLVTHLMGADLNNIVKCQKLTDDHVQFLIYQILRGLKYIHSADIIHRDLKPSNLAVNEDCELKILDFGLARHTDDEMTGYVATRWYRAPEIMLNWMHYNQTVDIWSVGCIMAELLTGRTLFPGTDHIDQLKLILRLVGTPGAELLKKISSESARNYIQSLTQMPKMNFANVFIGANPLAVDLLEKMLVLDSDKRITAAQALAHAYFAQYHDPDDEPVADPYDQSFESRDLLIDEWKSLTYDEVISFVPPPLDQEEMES
# TEST DESCRIPTION: Inhibition of human p38 MAPK alpha incubated for 1 hr by photometric method
MEASUREMENT LABEL: IC50 (nM)

- Nc1ccccc1Nc1ccc2c(c1)CCc1ccc(C(=O)NC(CO)CO)cc1C2=O: 15
- Nc1ccccc1Nc1ccc2c(c1)CCc1ccc(C(=O)NCCN3CCOCC3)cc1C2=O: 18
- N[C@@H](CCCCNC(=O)c1ccc2c(c1)C(=O)c1ccc(Nc3ccc(F)cc3F)cc1CC2)C(=O)O: 3.5
- O=C(O)CCCNC(=O)c1ccc2c(c1)C(=O)c1ccc(Nc3ccc(F)cc3F)cc1CC2: 12
- NCCNC(=O)c1ccc2c(c1)C(=O)c1ccc(Nc3ccccc3N)cc1CC2: 5.3
- COC(=O)[C@@H](N)CCNC(=O)c1ccc2c(c1)C(=O)c1ccc(Nc3ccc(F)cc3F)cc1CC2: 2.3
- COC(=O)[C@H](C)NC(=O)c1ccc2c(c1)C(=O)c1ccc(Nc3ccc(F)cc3F)cc1CC2: 3
- COC(=O)CCCNC(=O)c1ccc2c(c1)C(=O)c1ccc(Nc3ccc(F)cc3F)cc1CC2: 3.4

* * *

# TEST DESCRIPTION: Drug concentration in mouse C57BL/6 heart at 0.4 mg/kg,po measured at 4 hrs by LC-MS/MS analysis
# Type: ADME, organism-based
# PROTOCOL CONDITIONS: C57BL/6, mouse, read-out: Drug uptake
MEASUREMENT LABEL: concentration at 4 h (nM)

• Nc1ccccc1Nc1ccc2c(c1)CCc1ccc(C(=O)NCCC(=O)O)cc1C2=O = 120

* * *

# TEST DESCRIPTION: Drug concentration in rat plasma at 1.5 mg/kg, po measured after 1 hrs by LC/MS/MS analysis
# Assay type: ADME, organism-based
MEASUREMENT LABEL: concentration at 1 h (ng/mL)

- O=c1ncn2nc(Sc3ccc(F)cc3F)ccc2c1-c1c(Cl)cccc1Cl [NEFLAMAPIMOD]: 33

* * *

# MEASURED TARGET: Mitogen-activated protein kinase 14 (Homo sapiens, UniProt Q16539)
# TEST DESCRIPTION: Inhibition of human p38 MAPK alpha incubated for 1 hr by photometric method
pIC50: −log10 of the molar value.
MEASUREMENT LABEL: pIC50

• O=C(NC1(c2ccccc2)CC1)c1ccc2c(c1)C(=O)c1ccc(Nc3ccc(F)cc3F)cc1CC2 = 8.60
• CCCCCCCCNC(=O)c1ccc2c(c1)C(=O)c1ccc(Nc3ccc(F)cc3F)cc1CC2 = 6.41
• COC(=O)[C@@H](N)CNC(=O)c1ccc2c(c1)C(=O)c1ccc(Nc3ccc(F)cc3F)cc1CC2 = 8.27
• O=C(O)CNC(=O)c1ccc2c(c1)C(=O)c1ccc(Nc3ccc(F)cc3F)cc1CC2 = 8.03
• CN(C)CCNC(=O)c1ccc2c(c1)C(=O)c1ccc(Nc3ccccc3N)cc1CC2 = 8.08
• CC(NC(=O)c1ccc2c(c1)C(=O)c1ccc(Nc3ccc(F)cc3F)cc1CC2)C1CCCCC1 (centres undefined) = 7.66
• COC(=O)CCNC(=O)c1ccc2c(c1)C(=O)c1ccc(Nc3ccccc3N)cc1CC2 = 7.54
• COC(=O)[C@@H](N)CCCCNC(=O)c1ccc2c(c1)C(=O)c1ccc(Nc3ccccc3N)cc1CC2 = 7.92
• Nc1ccccc1Nc1ccc2c(c1)CCc1ccc(C(=O)NCCN3CCNCC3)cc1C2=O = 7.74

* * *

# TEST DESCRIPTION: Ratio of drug concentration in rat brain to plasma
# PROTOCOL CONDITIONS: brain and plasma
MEASUREMENT LABEL: Kp

• O=c1ncn2nc(Sc3ccc(F)cc3F)ccc2c1-c1c(Cl)cccc1Cl = 1.7

* * *

# Tested on: Splenocyte
# TEST DESCRIPTION: Cytotoxicity against Balb/c mouse splenocytes assessed as metabolic activity at 1 to 10 nM incubated for 24 hrs by MTT assay
# Format: toxicity, cell-based
# PROTOCOL CONDITIONS: 0.01 µM, dose 1-10 nM
MEASUREMENT LABEL: Activity

* O=C(NCCOCCO)c1ccc2c(c1)C(=O)c1ccc(Nc3ccc(F)cc3F)cc1CC2 | Non-Toxic
* COC(=O)[C@@H](N)CCNC(=O)c1ccc2c(c1)C(=O)c1ccc(Nc3ccc(F)cc3F)cc1CC2 | Non-Toxic
* Nc1ccccc1Nc1ccc2c(c1)CCc1ccc(C(=O)NCCC(=O)O)cc1C2=O | Non-Toxic

* * *

# TEST DESCRIPTION: Drug concentration in mouse C57BL/6 brain at 0.4 mg/kg,iv measured at 2 hrs by LC-MS/MS analysis
# Type: ADME, organism-based
# PROTOCOL CONDITIONS: C57BL/6, mouse, read-out: Drug uptake
MEASUREMENT LABEL: concentration at 2 h (nM)

* CNC(=O)c1ccc2c(c1)C(=O)c1ccc(Nc3ccccc3N)cc1CC2 | 20

* * *

# TEST DESCRIPTION: Metabolic stability in human liver microsomes assessed as parent compound remaining incubated for 120 mins
# Format: ADME, Microsome
# PROTOCOL CONDITIONS: read-out: Stability
MEASUREMENT LABEL: remaining at 2 h (%)

• CNC(=O)c1ccc2c(c1)C(=O)c1ccc(Nc3ccccc3N)cc1CC2 = 3
• O=C(NCCN1CC2(COC2)C1)c1ccc2c(c1)C(=O)c1ccc(Nc3ccc(F)cc3F)cc1CC2 = 47
• O=C(O)CCCNC(=O)c1ccc2c(c1)C(=O)c1ccc(Nc3ccc(F)cc3F)cc1CC2 = 99
• COC(=O)[C@@H](N)CCNC(=O)c1ccc2c(c1)C(=O)c1ccc(Nc3ccc(F)cc3F)cc1CC2 = 6
• O=C(NO)c1ccc2c(c1)C(=O)c1ccc(Nc3ccc(F)cc3F)cc1CC2 = 13
• NC(=O)CCNC(=O)c1ccc2c(c1)C(=O)c1ccc(Nc3ccc(F)cc3F)cc1CC2 = 95
• Nc1ccccc1Nc1ccc2c(c1)CCc1ccc(C(=O)NCCC(=O)O)cc1C2=O = 99
• COC(=O)[C@H](CCSC)NC(=O)c1ccc2c(c1)C(=O)c1ccc(Nc3ccccc3N)cc1CC2 = 0
• O=C(O)CC[C@H](NC(=O)c1ccc2c(c1)C(=O)c1ccc(Nc3ccc(F)cc3F)cc1CC2)C(=O)O = 93
• COC(=O)[C@@H](N)CNC(=O)c1ccc2c(c1)C(=O)c1ccc(Nc3ccc(F)cc3F)cc1CC2 = 12
• O=C(O)CNC(=O)c1ccc2c(c1)C(=O)c1ccc(Nc3ccc(F)cc3F)cc1CC2 = 93
• O=C(NCCc1c[nH]cn1)c1ccc2c(c1)C(=O)c1ccc(Nc3ccc(F)cc3F)cc1CC2 = 95
• CN(C)CCNC(=O)c1ccc2c(c1)C(=O)c1ccc(Nc3ccccc3N)cc1CC2 = 50
• COC(=O)CCNC(=O)c1ccc2c(c1)C(=O)c1ccc(Nc3ccc(F)cc3F)cc1CC2 = 0
• COC(=O)[C@H](C)NC(=O)c1ccc2c(c1)C(=O)c1ccc(Nc3ccc(F)cc3F)cc1CC2 = 93
